Reference for the values: ChEMBL document CHEMBL3112456

# System: Hepacivirus hominis
# EXPERIMENTAL PROTOCOL: Inhibition of helicase activity of HCV NTPase/helicase using radio-labelled double-stranded RNA as substrate up to 300 ug/ml after 30 mins
Activity calls are given as the source filed them. No cut-off for these calls is given here.
MEASURED ATTRIBUTE: inhibition

Guide cases for inhibition, answers given:
# COMPOUND, TARGET OR SYSTEM, inhibition
data = [
    ("CCCCCCCCCCCCNc1nc(=O)c2ncn([C@@H]3O[C@H](CO)[C@@H](O)[C@H]3O)c2c(=O)[nH]1", "Hepacivirus hominis", "inactive"),
    ("CCCCCCCCCCCCCCNc1nc(=O)c2ncn([C@@H]3C[C@H](O)[C@@H](CO)O3)c2c(=O)[nH]1", "Hepacivirus hominis", "inactive"),
    ("CCCCCCCCCCCCCCCCNc1nc(=O)c2ncn([C@@H]3O[C@H](CO)[C@@H](O)[C@H]3O)c2c(=O)[nH]1", "Hepacivirus hominis", "inactive"),
    ("CCCCCCCCCCNc1nc(=O)c2ncn([C@@H]3C[C@H](O)[C@@H](CO)O3)c2c(=O)[nH]1", "Hepacivirus hominis", "inactive"),
    ("CCCCCCCCNc1nc(=O)c2ncn([C@@H]3C[C@H](O)[C@@H](CO)O3)c2c(=O)[nH]1", "Hepacivirus hominis", "inactive"),
    ("CCCCCCCCNc1nc(=O)c2ncn([C@@H]3O[C@H](CO)[C@@H](O)[C@H]3O)c2c(=O)[nH]1", "Hepacivirus hominis", "inactive"),
]

The molecule `CCCCCCCCCCCCCCNc1nc(=O)c2ncn([C@@H]3O[C@H](CO)[C@@H](O)[C@H]3O)c2c(=O)[nH]1` showed inhibition equal to inactive

Record `CCCCCCCCCCNc1nc(=O)c2ncn([C@@H]3O[C@H](CO)[C@@H](O)[C@H]3O)c2c(=O)[nH]1` , field inhibition: inactive

// sample `CCCCCCCCCCCCCCCCNc1nc(=O)c2ncn([C@@H]3C[C@H](O)[C@@H](CO)O3)c2c(=O)[nH]1` , its inhibition was inactive
